tested on: LNCaP; assay: Cell growth inhibition assay, prostate cancer cell line LNCaP (medium with 10 ng/mL IL-6); format: cell-based; settings: Homo sapiens, medium supplemented with 10 ng/mL of IL-6, 10,000 cells/well
EXPERIMENTAL READOUT: IC50
Include the unit right after the number.

Ask: Please report the recorded IC50 for COc1cc(OC(F)(F)F)cc(C(C)(C)c2cc(Cl)nc(NC(=O)c3cc4cc(NS(C)(=O)=O)ccc4s3)c2)c1 .
Result: 0.58 µM

Ask: Please report the recorded IC50 for CC(C)(c1ccc(F)cc1)c1cc(NC(=O)c2cc3cc(NS(C)(=O)=O)ccc3s2)cc(OC(F)F)c1 .
Result: 0.22 µM

Ask: Please report the recorded IC50 for CCOc1cc(OC(F)(F)F)cc(C(C)(C)c2cc(Br)cc(NC(=O)c3cc4cc(NS(C)(=O)=O)ncc4s3)c2)c1 .
Result: 0.13 µM

Ask: Please report the recorded IC50 for CC(C)(c1cc(Br)cc(NC(=O)c2cc3ccc(NS(C)(=O)=O)cc3[nH]2)c1)c1cccc(OC(F)F)c1 .
Result: 1.1 µM
